Listed here: molecules with reported Ki for UniProt:Q9Y5N1.
Sequence (Q9Y5N1 whole entry, species assumed): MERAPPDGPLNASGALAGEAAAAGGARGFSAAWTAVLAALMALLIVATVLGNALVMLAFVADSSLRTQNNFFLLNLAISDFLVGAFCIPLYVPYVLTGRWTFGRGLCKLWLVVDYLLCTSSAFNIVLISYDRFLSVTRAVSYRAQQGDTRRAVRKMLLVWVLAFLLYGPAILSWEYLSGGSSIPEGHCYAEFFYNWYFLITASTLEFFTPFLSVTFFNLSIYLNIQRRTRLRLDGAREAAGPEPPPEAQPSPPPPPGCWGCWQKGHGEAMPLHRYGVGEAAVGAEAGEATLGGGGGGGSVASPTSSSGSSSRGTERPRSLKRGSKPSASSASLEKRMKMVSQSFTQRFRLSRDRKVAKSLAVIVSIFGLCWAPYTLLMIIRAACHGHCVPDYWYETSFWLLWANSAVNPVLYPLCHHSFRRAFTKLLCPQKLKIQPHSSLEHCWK
observable: Ki (nM)

A. O=C([C@H]1C[C@@H]1c1ccc([18F])cc1)N1CCN(C2CCCC2)CC1 [[^18F]3]
B. O=C([C@H]1C[C@@H]1c1ccc(-c2ccc([18F])nc2)cc1)N1CCN(C2CCC2)CC1 [[^18F]H3-2404, reference compound]
Sort A and B by Ki descending and give the first. // caller expects the label of the chosen entry
B
(B: 10.2 nM, A: 2.87 nM)
